The entries below come with measured Affinity relative to parent 11K2 values attached.
- target_under_test: T1, human CCL2 (MCP1) - P8A variant (human, UniProt P13500 24-99)
- T1 construct: In-house point mutant that cannot dimerise; also called monomeric human CCL2; monomeric CCL2
- test: number printed over the column of sensorgrams; the assay and the CCL2 form behind the number are not stated on the sheet (the sensorgrams are on monomeric CCL2)

[[record]]
binder = "11K2H1503/11K2L1201 (antibody, V domains shown, also called modified 11K2 variant (VH H1503 / VL L1201)) VH: QVQLVQSGAEVKKPGSSVKVSCKASGLTISHTYMHWVRQAPGQGLEWMGRIDPDNHNTKFDPKFQGRVTITADTSTSTAYMELSSLRSEDTAVYYCARGVFGFFDHWGQGTTVTVSS VL: DIQMTQSPSSLSASVGDRVTITCKATEDIYNRLAWYQQKPGKAPKLLIHGATSLEHGVPSRFSGSGSGTDYTLTISSLQPEDFATYYCQQFRSAPYTFGGGTKVEIK"
recorded_metric = "Affinity relative to parent 11K2"
result = 0.05


# input Give the measured Affinity relative to parent 11K2 of 11K2H1510/11K2L1338 (antibody, V domains shown, also called modified 11K2 variant (VH H1510 / VL L1338)) VH: QVQLVQSGAEVKKPGSSVKVSCKASGLTISHTYMHWVRQAPGQGLEWMGRIDPDNHNTKFDPKFQGRVTITADTSTSTAYMELSSLRSEDTAVYYCARGVFGFFEHWGQGTTVTVSS VL: DIQMTQSPSSLSASVGDRVTITCKAFEDIYNRRAWYQQKPGKAPKLLIHGATSLEHGVPSRFSGSGSGTDYTLTISSLQPEDFATYYCQQFWSAPYTFGGGTKVEIK .
# output < 0.01

# input Follow-up entry: 11K2H1514/11K2L1338 (antibody, V domains shown, also called modified 11K2 variant (VH H1514 / VL L1338)) VH: QVQLVQSGAEVKKPGSSVKVSCKASGLTISHTYMHWVRQAPGQGLEWMGRIDPENHNTKFDPKFQGRVTITADTSTSTAYMELSSLRSEDTAVYYCARGVFGFFEHWGQGTTVTVSS VL: DIQMTQSPSSLSASVGDRVTITCKAFEDIYNRRAWYQQKPGKAPKLLIHGATSLEHGVPSRFSGSGSGTDYTLTISSLQPEDFATYYCQQFWSAPYTFGGGTKVEIK
# output 0.02

# input Follow-up entry: 11K2H1503/11K2L1338 (antibody, V domains shown, also called modified 11K2 variant (VH H1503 / VL L1338)) VH: QVQLVQSGAEVKKPGSSVKVSCKASGLTISHTYMHWVRQAPGQGLEWMGRIDPDNHNTKFDPKFQGRVTITADTSTSTAYMELSSLRSEDTAVYYCARGVFGFFDHWGQGTTVTVSS VL: DIQMTQSPSSLSASVGDRVTITCKAFEDIYNRRAWYQQKPGKAPKLLIHGATSLEHGVPSRFSGSGSGTDYTLTISSLQPEDFATYYCQQFWSAPYTFGGGTKVEIK
# output 0.2
